Reference source for all entries: ChEMBL document CHEMBL1144990

# target: Adrenergic receptor alpha-1 (Rattus norvegicus, UniProt P15823+P23944+P43140)
# method: Binding affinity for Alpha-1 adrenergic receptor in rat cortex membranes using [3H]-prazosin as radioligand
# Format: cell membranes
experimental-endpoint: Ki (nM)

compound	target	reported-measurement
COc1ccccc1OCCN1CCN(c2cnn(CCCCCCCN3CCN(c4ccccc4OC)CC3)c(=O)c2Cl)CC1	Adrenergic receptor alpha-1 (Rattus norvegicus, UniProt P15823+P23944+P43140)	1.45
CCOc1ccccc1N1CCN(CCCCCCCn2ncc(Cl)c(N3CCN(CC4COc5ccccc5O4)CC3)c2=O)CC1 (stereo not given)	Adrenergic receptor alpha-1 (Rattus norvegicus, UniProt P15823+P23944+P43140)	0.43
CCOc1ccccc1N1CCN(CCCCCCCn2ncc(N3CCN(CC4COc5ccccc5O4)CC3)c(Cl)c2=O)CC1 (stereo not given)	Adrenergic receptor alpha-1 (Rattus norvegicus, UniProt P15823+P23944+P43140)	0.42
CCOc1ccccc1N1CCN(CCCCCCCn2ncc(Cl)c(N3CCN(C(=O)c4ccco4)CC3)c2=O)CC1	Adrenergic receptor alpha-1 (Rattus norvegicus, UniProt P15823+P23944+P43140)	0.23
CC(C)Oc1ccccc1N1CCN(CCCCCCCn2ncc(N3CCN(CC4COc5ccccc5O4)CC3)c(Cl)c2=O)CC1 (stereo not given)	Adrenergic receptor alpha-1 (Rattus norvegicus, UniProt P15823+P23944+P43140)	0.31
COc1ccccc1N1CCN(CCCCCCCn2ncc(Cl)c(N3CCN(CC4COc5ccccc5O4)CC3)c2=O)CC1 (stereo not given)	Adrenergic receptor alpha-1 (Rattus norvegicus, UniProt P15823+P23944+P43140)	0.54
COc1ccccc1N1CCN(CCCCCCCn2ncc(N3CCN(CC4COc5ccccc5O4)CC3)c(Cl)c2=O)CC1 (stereo not given)	Adrenergic receptor alpha-1 (Rattus norvegicus, UniProt P15823+P23944+P43140)	1.68
COc1ccccc1N1CCN(CCCCCCCn2ncc(Cl)c(N3CCN(C(=O)c4ccco4)CC3)c2=O)CC1	Adrenergic receptor alpha-1 (Rattus norvegicus, UniProt P15823+P23944+P43140)	0.37
CC(C)Oc1ccccc1N1CCN(CCCCCCCn2ncc(Cl)c(N3CCN(C(=O)c4ccco4)CC3)c2=O)CC1	Adrenergic receptor alpha-1 (Rattus norvegicus, UniProt P15823+P23944+P43140)	0.08
CC(C)Oc1ccccc1N1CCN(CCCCCCCn2ncc(Cl)c(N3CCN(CC4COc5ccccc5O4)CC3)c2=O)CC1 (stereo not given)	Adrenergic receptor alpha-1 (Rattus norvegicus, UniProt P15823+P23944+P43140)	0.32
